Examples of binders with documented HUVEC survival (n = 2) 1:20 dilution of supernatant (RLU) follow.
Target: human KDR (VEGFR2) on cells (human, UniProt P35968 20-1356)
Sequence (P35968 20-1356): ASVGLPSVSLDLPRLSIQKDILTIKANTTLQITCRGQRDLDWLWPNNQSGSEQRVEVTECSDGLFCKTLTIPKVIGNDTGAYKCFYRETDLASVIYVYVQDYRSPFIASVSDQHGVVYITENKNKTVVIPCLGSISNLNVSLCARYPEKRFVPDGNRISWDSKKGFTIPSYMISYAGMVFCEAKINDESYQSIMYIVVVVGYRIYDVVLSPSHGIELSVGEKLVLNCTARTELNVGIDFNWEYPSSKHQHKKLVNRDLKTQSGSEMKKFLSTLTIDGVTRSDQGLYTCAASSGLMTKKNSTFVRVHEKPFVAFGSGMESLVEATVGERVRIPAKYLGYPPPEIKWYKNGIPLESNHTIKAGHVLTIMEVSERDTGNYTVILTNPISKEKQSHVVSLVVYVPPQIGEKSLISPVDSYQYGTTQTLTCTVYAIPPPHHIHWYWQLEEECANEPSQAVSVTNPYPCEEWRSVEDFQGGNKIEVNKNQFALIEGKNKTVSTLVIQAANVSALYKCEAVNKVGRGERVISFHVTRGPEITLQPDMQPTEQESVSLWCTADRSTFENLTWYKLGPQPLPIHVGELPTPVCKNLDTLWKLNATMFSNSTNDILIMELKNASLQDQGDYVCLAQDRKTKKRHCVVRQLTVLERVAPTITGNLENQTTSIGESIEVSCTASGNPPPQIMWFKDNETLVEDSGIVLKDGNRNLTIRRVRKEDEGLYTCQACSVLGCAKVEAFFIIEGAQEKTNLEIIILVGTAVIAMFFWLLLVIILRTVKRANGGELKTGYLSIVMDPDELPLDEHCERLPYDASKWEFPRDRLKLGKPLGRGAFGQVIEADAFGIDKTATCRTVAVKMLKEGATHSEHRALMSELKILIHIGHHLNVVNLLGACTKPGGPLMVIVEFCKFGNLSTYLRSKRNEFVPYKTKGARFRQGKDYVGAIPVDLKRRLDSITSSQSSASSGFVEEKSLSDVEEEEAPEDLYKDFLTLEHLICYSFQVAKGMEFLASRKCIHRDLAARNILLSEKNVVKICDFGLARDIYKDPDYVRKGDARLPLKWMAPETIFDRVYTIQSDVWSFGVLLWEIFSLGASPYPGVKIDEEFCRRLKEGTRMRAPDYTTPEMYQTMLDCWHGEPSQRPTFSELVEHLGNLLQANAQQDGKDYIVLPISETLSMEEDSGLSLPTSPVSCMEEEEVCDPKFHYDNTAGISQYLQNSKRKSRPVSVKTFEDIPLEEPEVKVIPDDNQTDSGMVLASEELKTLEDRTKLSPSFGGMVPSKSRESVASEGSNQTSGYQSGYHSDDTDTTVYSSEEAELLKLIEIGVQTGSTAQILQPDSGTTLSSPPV
Test: cell-based or functional assay
Quick note: give the figure in RLU, leave out the unit.

Lab note: measured HUVEC survival (n = 2) 1:20 dilution of supernatant (RLU) of anti-KDR monoclonal antibody 30F6 (antibody, V domains shown, Fully human mAb from XenoMouse (IgG2 or IgG4 strain); hybridoma supernatant) VH: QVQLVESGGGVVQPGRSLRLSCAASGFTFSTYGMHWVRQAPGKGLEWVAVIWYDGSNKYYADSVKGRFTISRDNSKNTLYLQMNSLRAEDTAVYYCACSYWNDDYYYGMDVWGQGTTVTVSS VL: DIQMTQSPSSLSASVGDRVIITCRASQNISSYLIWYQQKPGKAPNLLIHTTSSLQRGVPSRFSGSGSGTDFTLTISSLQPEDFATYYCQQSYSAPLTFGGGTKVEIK was 1350

Reported HUVEC survival (n = 2) 1:20 dilution of supernatant (RLU) ( anti-KDR monoclonal antibody 33C3 (antibody, V domains shown, Fully human mAb from XenoMouse (IgG2 or IgG4 strain); hybridoma supernatant) VH: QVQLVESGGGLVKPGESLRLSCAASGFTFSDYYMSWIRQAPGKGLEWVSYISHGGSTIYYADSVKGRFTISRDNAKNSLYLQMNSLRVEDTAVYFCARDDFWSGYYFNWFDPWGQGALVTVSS VL: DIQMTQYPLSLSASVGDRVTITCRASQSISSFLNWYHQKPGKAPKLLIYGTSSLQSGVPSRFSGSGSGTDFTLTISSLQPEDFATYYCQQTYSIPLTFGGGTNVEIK ) = 4710

Now, please, on to the next binder.
// recorded HUVEC survival (n = 2) 1:20 dilution of supernatant (RLU) for anti-KDR monoclonal antibody 29F7 (antibody, V domains shown, Fully human mAb from XenoMouse (IgG2 or IgG4 strain); hybridoma supernatant) VH: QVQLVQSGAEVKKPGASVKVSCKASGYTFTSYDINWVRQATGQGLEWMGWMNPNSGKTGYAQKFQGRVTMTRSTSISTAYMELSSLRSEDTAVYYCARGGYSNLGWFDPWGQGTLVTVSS VL: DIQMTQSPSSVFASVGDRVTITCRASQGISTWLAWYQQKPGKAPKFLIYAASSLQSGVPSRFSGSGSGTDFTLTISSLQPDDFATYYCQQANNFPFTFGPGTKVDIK : 24000

# credit: patent US20100260765A1
